// provenance: patent US12589101B2

Assay: Solubility of linker-payloads (LC-MS standard curve, saturated solution)
Type: physicochemical
Details: aqueous with cosolvent or surfactant or cyclodextrin, thermodynamic from solid, in 10% DMSO/H2O; read-out: Solubility in other solvents

MOLECULE	solubility at 10 min, µg/mL
CCCC1O[C@@H]2C[C@H]3[C@@H]4CCC5=CC(=O)C=C[C@]5(C)[C@H]4[C@@H](O)C[C@]3(C)[C@]2(C(=O)COc2ccc(NC(=O)[C@H](C)NC(=O)[C@@H](NC(=O)[C@@H](CCCCNC(=O)COC3CCCCCc4c3nnn4CC3OC4OC5C(CO)OC(OC6C(CO)OC(OC7C(CO)OC(OC8C(CO)OC(OC9C(CO)OC(OC3C(O)C4O)C(O)C9O)C(O)C8O)C(O)C7O)C(O)C6O)C(O)C5O)NC(=O)CCOCCOCCOCCOCCNC(=O)CCC(=O)N3Cc4ccccc4C#Cc4ccccc43)C(C)C)cc2)O1 (stereo partly shown)	100

====

molecules and their reported solubility at 10 min
Experiment: Solubility of linker-payloads (LC-MS standard curve, saturated solution)
Format: physicochemical
Details: water, thermodynamic from solid, Solubility

MOLECULE	COMPARISON_OPERATOR	solubility at 10 min [µg/mL]
CC(C)[C@H](NC(=O)[C@@H](CCCCNC(=O)COC1CCCCCc2c1nnn2CC1OC2OC3C(CO)OC(OC4C(CO)OC(OC5C(CO)OC(OC6C(CO)OC(OC7C(CO)OC(OC1C(O)C2O)C(O)C7O)C(O)C6O)C(O)C5O)C(O)C4O)C(O)C3O)NC(=O)CCOCCOCCOCCOCCNC(=O)CCC(=O)N1Cc2ccccc2C#Cc2ccccc21)C(=O)N[C@@H](C)C(=O)Nc1ccc2c(c1)[C@@]1(C)CCC[C@](C)(C(=O)NC(=O)[C@@]3(C)CCC[C@]4(C)c5cc(O)ccc5CC[C@@H]34)[C@@H]1CC2 (stereo partly shown)	=	50
CC(C)[C@H](NC(=O)[C@@H](CCCCNC(=O)CCOCCOCCOCCOCCNC(=O)COC1CCCCCc2nnn(CC3OC4OC5C(CO)OC(OC6C(CO)OC(OC7C(CO)OC(OC8C(CO)OC(OC9C(CO)OC(OC3C(O)C4O)C(O)C9O)C(O)C8O)C(O)C7O)C(O)C6O)C(O)C5O)c21)NC(=O)CCOCCOCCOCCOCCNC(=O)CCC(=O)N1Cc2ccccc2C#Cc2ccccc21)C(=O)N[C@@H](C)C(=O)Nc1ccc2c(c1)[C@@]1(C)CCC[C@](C)(C(=O)NC(=O)[C@@]3(C)CCC[C@]4(C)c5cc(O)ccc5CC[C@@H]34)[C@@H]1CC2 (stereo partly shown)	=	180
CCCC1O[C@@H]2C[C@H]3[C@@H]4C[C@H](F)C5=CC(=O)C=C[C@]5(C)[C@@]4(F)[C@@H](O)C[C@]3(C)[C@]2(C(=O)COc2ccc(NC(=O)OCc3ccc(NC(=O)[C@H](CCCNC(N)=O)NC(=O)[C@@H](NC(=O)CCOCCOCCOCCOCCNC(=O)CCC(=O)N4Cc5ccccc5C#Cc5ccccc54)C(C)C)cc3)cc2)O1 (stereo partly shown)	<	10
CC(C)[C@H](NC(=O)CCOCCOCCOCCOCCNC(=O)CCC(=O)N1Cc2ccccc2C#Cc2ccccc21)C(=O)N[C@@H](C)C(=O)Nc1ccc2c(c1)[C@@]1(C)CCC[C@](C)(C(=O)NC(=O)[C@@]3(C)CCC[C@]4(C)c5cc(O)ccc5CC[C@@H]34)[C@@H]1CC2	<	100
